Where these numbers come from: the Immune Epitope Database (IEDB)

Experimental System: HLA-B*15:42
Assay Comment: IEDB peptide-MHC binding, purified MHC/competitive/fluorescence; filed as Kd, often an IC50 or EC50 that approximates it; bounds were set here for any values at or beyond the usual limits of such assays
Condition Label: source organism: Homo sapiens
pKd: −log10 of the molar value.
// reported pKd per item

> print(dat)
    seq.text  experimental.value
1  YYWPRPRRY              ≤ 5.30

State the recorded pKd for this entry: `VMAPRTLIL`
≤ 5.30

====

Experimental System: HLA-A*02:03
Assay Comment: IEDB peptide-MHC binding, purified MHC/competitive/radioactivity; filed as Kd, often an IC50 or EC50 that approximates it; bounds were set here for any values at or beyond the usual limits of such assays
Condition Label: source organism: Vaccinia virus WR
Quantity: Kd (nM)
The reply should be a number in nM, with the unit left off.

Study these solved cases before continuing.
> print(dat)
     seq.text  experimental.system  experimental.value
1   MAGVEVRYI          HLA-A*02:03                 201
2  ITVGMLIYSM          HLA-A*02:03                6110
3   LLVQYGAKI          HLA-A*02:03                 358

Lab note: need Kd with HLA-A*02:03 for entry `EALYYVHSL` , please look it up.
5770

Lab note: need Kd with HLA-A*02:03 for entry `LLTHGADPNA` , please look it up.
7510

Lab note: need Kd with HLA-A*02:03 for entry `PAHLINKLL` , please look it up.
6310

Lab note: need Kd with HLA-A*02:03 for entry `DTGKKELAL` , please look it up.
156

Lab note: need Kd with HLA-A*02:03 for entry `CTMERTNDLT` , please look it up.
16100

Lab note: need Kd with HLA-A*02:03 for entry `ALYYVHSLL` , please look it up.
15000

Lab note: need Kd with HLA-A*02:03 for entry `RIVVALSSLV` , please look it up.
7.21

Lab note: need Kd with HLA-A*02:03 for entry `AISYCRAFI` , please look it up.
149

Lab note: need Kd with HLA-A*02:03 for entry `STISWMMKL` , please look it up.
22.8

Lab note: need Kd with HLA-A*02:03 for entry `NLYKVYNGI` , please look it up.
61.7

Lab note: need Kd with HLA-A*02:03 for entry `IVQSVLRDI` , please look it up.
101

Lab note: need Kd with HLA-A*02:03 for entry `SQFSYKELYV` , please look it up.
27.2

Lab note: need Kd with HLA-A*02:03 for entry `DTCLLAISA` , please look it up.
6450

Lab note: need Kd with HLA-A*02:03 for entry `TIKESLLKET` , please look it up.
149

Lab note: need Kd with HLA-A*02:03 for entry `IAVANCVRNL` , please look it up.
467

Lab note: need Kd with HLA-A*02:03 for entry `QIFNIISYI` , please look it up.
15.1

Lab note: need Kd with HLA-A*02:03 for entry `KIILFQNNDI` , please look it up.
2000

Lab note: need Kd with HLA-A*02:03 for entry `ITPTIEDDKI` , please look it up.
4200
